target-under-test: A13DBD WT (mouse (murine), UniProt Q62424 320-386)
Sequence (Q62424 320-386): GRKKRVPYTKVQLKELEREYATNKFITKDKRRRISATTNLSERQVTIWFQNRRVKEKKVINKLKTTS
method: fluorescence anisotropy; 10 mM MgCl2; FA: 20 mM Tris pH 7.5, 80 mM KCl, 10 mM MgCl2, 0.2 mM EDTA, 1 mM DTT, 15 C, 1 nM DNA; NMR complex: 20 mM NaPO4 pH 6.0, 5 mM MgCl2, 10% D2O, 310 K; ITC buffer not given in the material
particulars: protein: recombinant; tags: His-tag removed by thrombin; label: 5' 6-FAM via hexyl linker; hairpin (self-annealing)
Reported Kd values for the following binders.

{"binder": "CAAATAAAATCCCCCATTTTATTTG (structured_DNA) [FA consensus (wt)]", "Kd (nM)": 2.19}
{"binder": "CAAAUAAATCCCCCATTTTATTGTG (structured_DNA, deoxyuridine at position 5) [FA T5U]", "Kd (nM)": 4.01}
{"binder": "CAAACAAAATCCCCCATTTTGTTTG (structured_DNA) [FA T5C]", "Kd (nM)": 49.2}

All figures here come from paper PMC3148250.
